Target: GLP-1R (Homo sapiens, UniProt P43220)
Construct: host or cells: GLP-1R CRE-bla CHO-K1 cells
Sequence (P43220 24-463): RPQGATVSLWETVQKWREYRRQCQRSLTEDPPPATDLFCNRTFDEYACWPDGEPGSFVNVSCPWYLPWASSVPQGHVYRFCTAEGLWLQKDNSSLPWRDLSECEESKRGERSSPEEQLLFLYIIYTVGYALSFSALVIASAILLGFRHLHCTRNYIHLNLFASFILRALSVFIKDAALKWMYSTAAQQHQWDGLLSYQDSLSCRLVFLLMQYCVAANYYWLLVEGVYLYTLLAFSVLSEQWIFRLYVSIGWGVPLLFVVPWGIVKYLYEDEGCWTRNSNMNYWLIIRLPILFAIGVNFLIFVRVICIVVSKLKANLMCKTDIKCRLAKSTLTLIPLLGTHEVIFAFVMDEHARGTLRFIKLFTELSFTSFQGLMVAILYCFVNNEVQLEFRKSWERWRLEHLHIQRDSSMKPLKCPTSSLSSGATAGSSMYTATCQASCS
Sequence (P01275 100-127 partner limits assumed): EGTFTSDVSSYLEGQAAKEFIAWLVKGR
Assay: EC20 GLP-1(9-36) PAM cAMP assay: dose response of compound in the presence of fixed concentration of GLP-1(9-36)
Format: cell-based
Settings: dose response of compound in presence of fixed concentration of GLP-1(9-36), GLP-1R CRE-bla CHO-K1 cells, read-out: EC20 GLP-1(9-36) PAM EC50
RECORDED_ENDPOINT: EC50

compound=CC(C)COc1ccc(-c2cnc(-c3ccc(C[C@H](NC(=O)c4ccc(C(C)(C)C)cc4)C(=O)NCCC(=O)O)cc3)nc2)cc1 result="2500 to 5000 nM"
compound="CCCCCCCOc1ccc(-c2cnc(-c3ccc(C[C@H](NC(=O)c4ccc(C(C)(C)C)s4)C(=O)NC(C(=O)O)c4cccs4)cc3)nc2)cc1 (stereo partly drawn)" result="< 800 nM"
compound="CCCCCCCOc1ccc(-c2cnc(-c3ccc(C[C@H](NC(=O)c4ccc(C(C)(C)C)s4)C(=O)NC(C(=O)O)C(O)C4CC4)cc3)nc2)cc1 (stereo partly drawn)" result="800 to 2500 nM"
compound=CC(C)(C)c1ccc(C(=O)N[C@@H](Cc2ccc(-c3ncc(-c4ccc(-c5ccc(Cl)cc5)cc4F)cn3)cc2)C(=O)N2CC(C(=O)O)C2)s1 result="< 800 nM"
compound=CCc1ccc(C(=O)N[C@@H](Cc2ccc(-c3ncc(-c4ccc([C@H]5CC[C@H](CC)CC5)cc4)cn3)cc2)C(=O)N2CC(C(=O)O)C2)s1 result="< 800 nM"

Give recorded EC50 with GLP-1R (Homo sapiens, UniProt P43220) for the following compound: `CCCCCCCOc1ccc(-c2cnc(-c3ccc(C[C@H](NC(=O)c4ccc(C(C)(C)C)s4)C(=O)N[C@@H](Cc4ccc(O)c(O)c4)C(=O)O)cc3)nc2)cc1`
800 to 2500 nM
